- system-under-test: Botulinum neurotoxin type A (Clostridium botulinum, UniProt P0DPI0)
- Sequence (P0DPI0 2-448 limits assumed): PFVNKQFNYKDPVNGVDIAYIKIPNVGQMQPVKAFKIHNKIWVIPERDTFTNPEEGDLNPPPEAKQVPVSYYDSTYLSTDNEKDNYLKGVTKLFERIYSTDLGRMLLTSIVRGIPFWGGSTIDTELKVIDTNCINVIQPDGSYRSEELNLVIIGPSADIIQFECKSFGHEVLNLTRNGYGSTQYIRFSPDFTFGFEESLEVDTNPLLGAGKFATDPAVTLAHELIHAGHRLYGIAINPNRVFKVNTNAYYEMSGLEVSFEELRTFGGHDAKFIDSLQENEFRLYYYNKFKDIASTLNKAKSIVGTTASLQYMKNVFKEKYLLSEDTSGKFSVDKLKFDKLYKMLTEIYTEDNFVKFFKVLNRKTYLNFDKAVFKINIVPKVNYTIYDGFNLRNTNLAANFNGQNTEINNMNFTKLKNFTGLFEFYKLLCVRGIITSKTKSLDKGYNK
So I've got a bunch of compounds here, and I need their IC50 values.
One number for each entry, in µM.

compound	IC50, µM
Cc1cc(N)c2cc(NC(=O)c3ccc(-c4cccc5cccnc45)cc3)ccc2n1	65

Quick request: IC50 for each listed item, please.
1. Cc1cc(N)c2cc(NC(=O)Nc3ccc4nc(C)cc(N)c4c3)ccc2n1 [AMINOQUINURIDE]
2. Cc1cc(N)c2cc(NC(=O)c3cccc(-c4ccc5ncccc5c4)c3)ccc2n1
3. Cc1cc(N)c2cc(NC(=O)c3cccc(-c4cccc5ncccc45)c3)ccc2n1
4. Cc1cc(N)c2cc(NC(=O)c3cccc(-c4ccc(N(C)C)cc4)c3)ccc2n1

Result ::
[7.2, 26, 68, 69]
